test system: K562/ADR; experiment: Leukemia cell growth inhibition, MTT, 72 h; assay type: cell-based; conditions: Homo sapiens
MEASURE_NAME: IC50 (µg/mL)

# annotated cases, reported IC50 shown
{"columns": ["COMPOUND", "UNIT_ABBREV", "IC50"],
 "data": [
  ["C=C1C(=O)[C@]23[C@H](OC(=O)C4CCN(S(=O)(=O)c5cccc([N+](=O)[O-])c5)CC4)[C@H]1CC[C@H]2[C@@]12CO[C@@]3(O)[C@@H](O)[C@@H]1C(C)(C)CCC2=O [BS-OR-037]", "µg/mL", 1.32],
  ["C=C1C(=O)[C@]23[C@H](OC(=O)c4ccccc4)[C@H]1CC[C@H]2[C@@]12CO[C@@]3(O)[C@@H](O)[C@@H]1C(C)(C)CCC2=O [BS-OR-001]", "µg/mL", 0.6],
  ["C=C1C(=O)[C@]23[C@H](OC(=O)c4ccccc4Cl)[C@H]1CC[C@H]2[C@@]12CO[C@@]3(O)[C@@H](O)[C@@H]1C(C)(C)CCC2=O [BS-OR-003]", "µg/mL", 0.71],
  ["C=C1C(=O)[C@]23[C@H](OC(=O)/C=C/c4ccccc4)[C@H]1CC[C@H]2[C@@]12CO[C@@]3(O)[C@@H](O)[C@@H]1C(C)(C)CC[C@@H]2OC(C)=O [BS-OR-094]", "µg/mL", 0.7]
]}

a: C=C1C(=O)[C@]23[C@H](OC(=O)C4CCN(S(=O)(=O)c5ccccc5[N+](=O)[O-])CC4)[C@H]1CC[C@H]2[C@@]12CO[C@@]3(O)[C@@H](O)[C@@H]1C(C)(C)CCC2=O [BS-OR-034]
b: C=C1C(=O)[C@]23[C@H](OC(=O)c4ccc(Cl)cc4)[C@H]1CC[C@H]2[C@@]12CO[C@@]3(O)[C@@H](O)[C@@H]1C(C)(C)CCC2=O [BS-OR-010]
c: C=C1C(=O)[C@]23[C@H](OC(=O)c4cccnc4)[C@H]1CC[C@H]2[C@@]12CO[C@@]3(O)[C@@H](O)[C@@H]1C(C)(C)CCC2=O [BS-OR-011]
[Q] Highest IC50 first, then in falling order down to the smallest. Reply with the item labels sorted in the order that was asked for.
[A] a, c, b

###

test system: Becap-37; assay: Solid tumor cell growth inhibition, MTT, 72 h; type: cell-based; settings: Homo sapiens
MEASURE_NAME: IC50 (µg/mL)

{"columns": ["MOLECULE", "STUDY_SYSTEM", "UNIT_ABBREV", "IC50"],
 "data": [
  ["C=C1C(=O)[C@]23[C@H](OC(=O)c4ccc(Cl)cc4)[C@H]1CC[C@H]2[C@@]12CO[C@@]3(O)[C@@H](O)[C@@H]1C(C)(C)CC[C@@H]2OC(C)=O [BS-OR-093]", "Becap-37", "µg/mL", 1.1],
  ["C=C1C(=O)[C@]23[C@H](OC(=O)c4ccc(Cl)cc4)[C@H]1CC[C@H]2[C@@]12CO[C@@]3(O)[C@@H](O)[C@@H]1C(C)(C)CCC2=O [BS-OR-010]", "Becap-37", "µg/mL", 1.03]
]}

a: C=C1C(=O)[C@]23[C@H](OC(=O)c4cccnc4)[C@H]1CC[C@H]2[C@@]12CO[C@@]3(O)[C@@H](O)[C@@H]1C(C)(C)CCC2=O [BS-OR-011]
b: C=C1C(=O)[C@]23[C@H](OC(=O)c4ccccc4Br)[C@H]1CC[C@H]2[C@@]12CO[C@@]3(O)[C@@H](O)[C@@H]1C(C)(C)CCC2=O [BS-OR-020]
c: C=C1C(=O)[C@]23[C@H](OC(=O)C4CCN(S(=O)(=O)c5ccccc5[N+](=O)[O-])CC4)[C@H]1CC[C@H]2[C@@]12CO[C@@]3(O)[C@@H](O)[C@@H]1C(C)(C)CCC2=O [BS-OR-034]
[Q] Highest IC50 first, then in falling order down to the smallest. Reply with the item labels sorted in the order that was asked for.
[A] c, a, b
